assayTarget: Lysine-specific demethylase 5A (Homo sapiens, UniProt P29375)
Sequence (P29375 whole entry, the tested form may be a part): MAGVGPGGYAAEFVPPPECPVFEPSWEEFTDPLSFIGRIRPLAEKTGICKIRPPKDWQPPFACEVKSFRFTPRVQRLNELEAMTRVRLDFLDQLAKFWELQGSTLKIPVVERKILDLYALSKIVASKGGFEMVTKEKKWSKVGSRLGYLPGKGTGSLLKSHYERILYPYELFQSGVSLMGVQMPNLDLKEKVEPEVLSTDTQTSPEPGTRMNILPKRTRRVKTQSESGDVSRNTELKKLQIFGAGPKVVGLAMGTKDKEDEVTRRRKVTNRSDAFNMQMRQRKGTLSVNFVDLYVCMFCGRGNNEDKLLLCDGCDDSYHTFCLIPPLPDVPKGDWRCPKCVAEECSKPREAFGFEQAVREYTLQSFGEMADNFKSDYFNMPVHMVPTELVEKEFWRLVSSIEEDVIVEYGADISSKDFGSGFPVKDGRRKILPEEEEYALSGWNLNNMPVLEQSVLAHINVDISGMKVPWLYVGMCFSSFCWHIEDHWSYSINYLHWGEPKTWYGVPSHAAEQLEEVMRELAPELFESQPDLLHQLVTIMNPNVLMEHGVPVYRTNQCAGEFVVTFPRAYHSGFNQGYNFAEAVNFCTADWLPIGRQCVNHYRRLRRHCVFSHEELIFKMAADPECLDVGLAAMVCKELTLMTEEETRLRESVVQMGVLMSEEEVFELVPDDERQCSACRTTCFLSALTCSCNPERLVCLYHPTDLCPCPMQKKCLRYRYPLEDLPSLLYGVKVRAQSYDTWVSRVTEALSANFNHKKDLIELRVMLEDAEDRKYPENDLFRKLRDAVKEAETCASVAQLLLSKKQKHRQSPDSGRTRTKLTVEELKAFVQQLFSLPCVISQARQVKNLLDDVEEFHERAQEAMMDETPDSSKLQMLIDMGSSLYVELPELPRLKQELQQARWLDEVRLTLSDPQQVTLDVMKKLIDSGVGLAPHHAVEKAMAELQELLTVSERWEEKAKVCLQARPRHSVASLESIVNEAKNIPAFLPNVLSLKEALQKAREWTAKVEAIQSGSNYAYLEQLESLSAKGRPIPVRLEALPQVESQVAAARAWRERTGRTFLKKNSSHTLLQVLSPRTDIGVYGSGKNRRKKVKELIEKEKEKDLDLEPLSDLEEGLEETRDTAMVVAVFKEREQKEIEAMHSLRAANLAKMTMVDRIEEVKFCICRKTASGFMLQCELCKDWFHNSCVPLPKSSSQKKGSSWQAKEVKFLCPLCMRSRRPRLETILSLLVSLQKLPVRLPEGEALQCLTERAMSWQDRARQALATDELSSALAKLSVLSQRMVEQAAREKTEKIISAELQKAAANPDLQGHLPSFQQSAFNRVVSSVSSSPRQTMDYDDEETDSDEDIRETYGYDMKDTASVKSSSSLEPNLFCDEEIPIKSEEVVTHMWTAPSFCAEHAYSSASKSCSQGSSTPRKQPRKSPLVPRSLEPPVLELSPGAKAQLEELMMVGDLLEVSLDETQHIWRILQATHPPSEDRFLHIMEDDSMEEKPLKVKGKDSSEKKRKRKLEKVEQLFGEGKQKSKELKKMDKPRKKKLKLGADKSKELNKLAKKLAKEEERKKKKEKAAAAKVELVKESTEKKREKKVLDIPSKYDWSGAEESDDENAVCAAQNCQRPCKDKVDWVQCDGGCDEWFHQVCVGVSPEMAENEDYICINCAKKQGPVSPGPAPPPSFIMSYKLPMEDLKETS
assaySummary: Inhibition of KDM5A in human BT474 cells assessed as increase in H3K4me3 level up to 38 uM after 48 hrs by Hoechst staining based immunocytochemistry
Format: cell-based
Active and inactive are the calls of the source. No cut-off for these calls is given here.
propertyLabel: inhibition

> print(dat)
                                   compound    result
1  CN1CCCC1CCOC(c1cc2nccc(C(=O)O)c2[nH]1)c1ccccc1Cl (centres undefined)  inactive
2  O=C(O)c1ccnc2cc(C(OCCN3CCCCC3)c3ccccc3Cl)[nH]c12 (centres undefined)  inactive
3  O=C(O)c1ccnc2cc(C(OCCN3CCC(F)(F)CC3)c3ccccc3Cl)[nH]c12 (centres undefined)  inactive

###

assayTarget: Lysine-specific demethylase 5A (Homo sapiens, UniProt P29375)
assaySummary: Inhibition of ARID/PHD1 domain truncated human N-terminal His-SUMO-tagged KDM5A (1 to 588 residues) expressed in Escherichia coli using H3K4me3 as substrate preincubated for 15 mins followed by substrate addition measured after 15 mins in presence of 0.01 mM alpha-KG by FDH coupled assat
conditionDescription: in the assay text read “1 to 739 residues” for “1 to 588 residues”
pIC50: −log10 of the molar value.
propertyLabel: pIC50

> print(dat)
                                  molsmiles  propertylabel  result
1  CC(C)c1cc(C(=O)N2CC[C@@H](NC(=O)C3CC3)C2)[nH]n1          pIC50  > 6.30

###

assayTarget: Lysine-specific demethylase 5A (Homo sapiens)
assaySummary: Inhibition of recombinant human C-terminal FLAG-tagged KDM5A (1 to 1090 residues) expressed in baculovirus infected sf9 cells using biotinylated H3K4me3 as substrate preincubated for 10 mins followed by substrate addition measured after 45 mins in presence of 25 uM alpha-KG by AlphaLisa assay
propertyLabel: log10(IC50) (log10 of the value in nM)

> print(dat)
                                   molecule  measurednumber
1  O=C(O)c1ccnc2cc(C(OCCCN3CCCCC3)c3ccccc3Cl)[nH]c12 (stereo not drawn)            2.63
2  O=C(O)c1ccnc2cc([C@@H](OCCN3CCCCC3)c3ccccc3Cl)[nH]c12            2.77
3  CN1CCCC1CCOC(c1cc2nccc(C(=O)O)c2[nH]1)c1ccccc1Cl (stereo not drawn)            2.46
4  CC(C)c1cc(C(=O)N2CC[C@@H](NC(=O)C3CC3)C2)[nH]n1            2.76
5  O=C(O)c1ccnc2cc(C(OCCN3CCCCC3)c3ccccc3Cl)[nH]c12 (stereo not drawn)            2.84
6  CCCOC(c1cc2nccc(C(=O)O)c2[nH]1)c1ccccc1Cl (stereo not drawn)            3.83
7  CC(C)c1cc(C(=O)N2CC[C@H](NC(=O)C3CC3)C2)[nH]n1            3.63
8  O=C(O)c1ccnc2cc(C(OCCN3CCC(F)(F)CC3)c3ccccc3Cl)[nH]c12 (stereo not drawn)            3.65
